Target: T1, huFLT3-T227 stably expressed on Ramos cells (human, UniProt P36888 27-993)
T1 construct: whole, on cells; also called FLT3 WT
Assay: FACS on cells
Consider the following binders; for each one, report its FACS geometric mean fold change over Jurkat parental.

Qu. # get_value(readout='FACS geometric mean fold change over Jurkat parental', item= Polypeptide No. 215 (scFv, V domains shown, scFv) VH: QVQLVQSGAEVKKPGASVKVSCKASGYTFTGYRMHWVRQAPGQGLEWMGWINPNSGGTNYAQKFQGRVTMTRDTSTSTVYMELSSLRSEDTAVYYCAKGGLDWRNWYFDLWGRGTLVTVSS VL: DIQMTQSPSSLSASVGDRVTITCRASQGISSYLAWYQQKPGKAPKLLIYAASTLQSGVPSRFSGSGSGTDFTLTISSLQPEDFATYYCQQSYSTPLTFGGGTKVEIKR )
Ans. 10 to 30 fold

Qu. And for Polypeptide No. 229 (scFv, V domains shown, scFv) VH: QVQLVQSGAEVKKPGASVKVSCKASGYTFTNYYMHWVRQAPGQGLEWMGIINPSGGSTSYAQKFQGRVTMTRDTSTSTVYMELSSLRSEDTAVYYCARGVGYSGYGADLWGRGTLVTVSS VL: DIQMTQSPSSLSASVGDRVTITCRASQGISNSLAWYQQKPGKAPKLLIYAASSLQSGVPSRFSGSGSGTDFTLTISSLQPEDFATYYCQQSHSPPYTFGQGTKLEIKR ?
Ans. > 30 fold

Qu. Try this binder next: Polypeptide No. 288 (scFv, V domains shown, scFv) VH: QVQLVQSGAEVKKPGASVKVSCKASGYTFTTYDINWVRQAPGQGLEWMGWMNPSSGNSGFAQQFQGRVTMTRDTSTSTVYMELSSLRSEDTAVYYCAREDYYDSSGYYNWGQGTLVTVSS VL: DIQMTQSPSSLSASVGDRVTITCRASQGISNNLNWYQQKPGKAPKLLIYKASTLESGVPSRFSGSGSGTDFTLTISSLQPEDFATYYCQQSYSTPITFGQGTKVEIKR
Ans. 2 to 10 fold

Qu. Field entry: Polypeptide No. 223 (scFv, V domains shown, scFv) VH: QVQLVQSGAEVKKPGASVKVSCKASGYTFTNSFIHWVRQAPGQGLEWMGIINPSGGSTSYAQKFQGRVTMTRDTSTSTVYMELSSLRSEDTAVYYCAKALERRYYYGMDVWGQGTTVTVSS VL: DIQMTQSPSSLSASVGDRVTITCRASQGISNYLAWYQQKPGKAPKLLIYDGSNLETGVPSRFSGSGSGTDFTLTISSLQPEDFATYYCQQSYSTPLTFGQGTKVEIKR
Ans. > 30 fold

Qu. And what about the binder Polypeptide No. 287 (scFv, V domains shown, scFv) VH: QVQLVQSGAEVKKPGASVKVSCKASGYTFTRHYVHWVRQAPGQGLEWVGIINPSSGSASYAQKFQGRVTMTRDTSTSTVYMELSSLRSEDTAVYYCARDRLRSRFDYWGQGTLVTVSS VL: DIQMTQSPSSLSASVGDRVTITCRASQSISSSLAWYQQKPGKAPKLLIYAASSLQSGVPSRFSGSGSGTDFTLTISSLQPEDFATYYCQQSYTIPPTFGQGTKLEIKR ?
Ans. 10 to 30 fold
